biological target: recombinant eIF4E (Homo sapiens (Human), UniProt P06730); experiment: Fluorescence polarization competition assay for eIF4E binding potency; conditions: inhibition of eIF4E/EDA-m7GDP-ATTO-550 binding by 50%; Table 4B calculated values; read-out: IC50
Sequence (P06730 whole entry): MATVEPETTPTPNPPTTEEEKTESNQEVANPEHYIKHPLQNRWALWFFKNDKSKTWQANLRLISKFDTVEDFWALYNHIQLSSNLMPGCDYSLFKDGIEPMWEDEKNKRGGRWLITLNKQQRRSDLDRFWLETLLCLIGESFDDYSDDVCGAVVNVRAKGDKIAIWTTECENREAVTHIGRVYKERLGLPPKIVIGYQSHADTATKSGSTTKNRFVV
measure: log10 IC50 (log10 of the value in nM)
Recall that a logarithmic scale is used here: each number is log10 of IC50 in nM.

Take a look at these entries with their results.
structureSmilesString: CCc1cc(-c2cc(Cl)ccc2OCCn2c(C)nc3cnc(CC)c(C#N)c3c2=O)c2scc(C(=O)O)c2n1
targetDesc: recombinant eIF4E (Homo sapiens (Human), UniProt P06730)
measure: log10 IC50
observedResult: 0.82
--
structureSmilesString: CC(=O)Nc1ccc(-c2cc(Cl)ccc2OCCn2cnc3cnc(C#N)cc3c2=O)cc1C(=O)O
targetDesc: recombinant eIF4E (Homo sapiens (Human), UniProt P06730)
measure: log10 IC50
observedResult: 2.87

Parameter requested: log10 IC50. Apply to each item below.
1. Cc1cc(-c2cc(Cl)ccc2OCCn2c(C)nc3cc(C(F)(F)F)c(N4CCC(C)CC4)nc3c2=O)c2scc(C(=O)O)c2n1
2. Cc1cc(-c2cc(Cl)ccc2C#CCn2c(C)nc3cncc(C#N)c3c2=O)c2scc(C(=O)O)c2n1
3. Cc1cc(-c2cc(Cl)ccc2C#CCn2c(C)nc3cc(C(F)(F)F)c(N4CCN(CCO)CC4)c(C#N)c3c2=O)c2scc(C(=O)O)c2n1

OUTPUT:
[1.51, 1.72, 1.14]

Parameter requested: log10 IC50. Apply to each item below.
1. N#Cc1ncc(CCOc2ccc(Cl)cc2-c2cccc(C(=O)O)c2)c2c(=O)[nH]c(NCC(F)(F)F)nc12
2. N#Cc1cccc2nc(C(F)F)n(CCOc3ccc(Cl)cc3-c3cncn(CC(=O)O)c3=S)c(=O)c12

OUTPUT:
1. 1.43
2. 3.12

---

Hi there, I'd appreciate the recorded IC50 for every entry that follows.
target: recombinant eIF4E (Homo sapiens (Human), UniProt P06730); test: Fluorescence polarization competition assay for eIF4E binding potency; conditions: fluorescence polarization competition, 75 nM recombinant eIF4E, 20 nM EDA-m7GDP-ATTO-550; IC50 class; read-out: elF4E FP

Take a look at these entries with their results.
structureSmilesString: Cc1cc(-c2cc(Cl)ccc2OCCn2c(C)nc3cc(Cl)c(-c4ncco4)c(C#N)c3c2=O)c2scc(C(=O)O)c2n1
IC50: < 50 nM
--
structureSmilesString: Cc1cc(-c2cc(Cl)ccc2OCCn2c(C)nc3cc(Cl)c(N)c(C#N)c3c2=O)c2scc(C(=O)O)c2n1
IC50: < 50 nM
--
structureSmilesString: C#Cc1c(C(=O)O)cccc1-c1cc(Cl)ccc1OCCn1c(C)nc2cncc(C#N)c2c1=O
IC50: < 50 nM
--
structureSmilesString: CONC(=O)c1csc2c(-c3cc(Cl)ccc3OCCn3c(C)nc4cc(F)c(F)c(C#N)c4c3=O)ccnc12
IC50: 50 to 1000 nM
--
structureSmilesString: N#Cc1cccc2nc(C(F)F)n(CCOc3ccc(Cl)cc3-c3ccnc4c(C(=O)O)csc34)c(=O)c12
IC50: < 50 nM

Parameter requested: IC50. Apply to each item below.
1. Cc1cc(-c2cc(Cl)ccc2OCCn2c(C)nc3cc(C(F)(F)F)c(CN4CCN(C(C)(C)C)CC4)c(C#N)c3c2=O)c2scc(C(=O)O)c2n1
2. Cc1c(CC#Cc2ccc(Cl)cc2-c2ccnc3c(C(=O)O)csc23)c(=O)c2c(C#N)cc(C(F)(F)F)cc2n1C
3. O=C(O)c1cccc(-c2cc(Cl)ccc2OCCn2cnc3cc(F)c(F)cc3c2=O)c1
4. Cc1nc2cc(C(F)(F)F)cc(C#N)c2c(=O)n1CCOc1ccc(Cl)cc1-c1ncnc2c(C(=O)O)csc12
5. Cc1nc2cc(C(F)F)c(CN(C)C)c(C#N)c2c(=O)n1CCOc1ccc(Cl)cc1-c1ccnc2c(C(=O)O)csc12
6. Cc1nc2cc(C(F)(F)F)c(CN(C)C)c(C#N)c2c(=O)n1CCOc1cc(F)c(Cl)cc1-c1ccnc2c(C(=O)O)csc12
7. Cc1cc(-c2cc(Cl)ccc2OCCn2c(C)nc3c(C)ncc(C#N)c3c2=O)c2scc(C(=O)NS(C)(=O)=O)c2n1
8. Cc1cc(-c2cc(Cl)ccc2OCCn2c(C)nc3cc(Cl)c(N4CCC(F)(F)C4)c(C#N)c3c2=O)c2scc(C(=O)O)c2n1

OUTPUT:
< 50 nM
< 50 nM
> 1000 nM
50 to 1000 nM
< 50 nM
< 50 nM
< 50 nM
< 50 nM

INPUT: May I ask what IC50 has been recorded for N#Cc1cncc2nc(C(F)F)n(CCOc3ccc(Cl)cc3-c3ccnc4c(C(=O)O)csc34)c(=O)c12 ?
OUTPUT: 50 to 1000 nM
